- Tgt: hERG (Homo sapiens)
- Sequence (Q12809 whole entry): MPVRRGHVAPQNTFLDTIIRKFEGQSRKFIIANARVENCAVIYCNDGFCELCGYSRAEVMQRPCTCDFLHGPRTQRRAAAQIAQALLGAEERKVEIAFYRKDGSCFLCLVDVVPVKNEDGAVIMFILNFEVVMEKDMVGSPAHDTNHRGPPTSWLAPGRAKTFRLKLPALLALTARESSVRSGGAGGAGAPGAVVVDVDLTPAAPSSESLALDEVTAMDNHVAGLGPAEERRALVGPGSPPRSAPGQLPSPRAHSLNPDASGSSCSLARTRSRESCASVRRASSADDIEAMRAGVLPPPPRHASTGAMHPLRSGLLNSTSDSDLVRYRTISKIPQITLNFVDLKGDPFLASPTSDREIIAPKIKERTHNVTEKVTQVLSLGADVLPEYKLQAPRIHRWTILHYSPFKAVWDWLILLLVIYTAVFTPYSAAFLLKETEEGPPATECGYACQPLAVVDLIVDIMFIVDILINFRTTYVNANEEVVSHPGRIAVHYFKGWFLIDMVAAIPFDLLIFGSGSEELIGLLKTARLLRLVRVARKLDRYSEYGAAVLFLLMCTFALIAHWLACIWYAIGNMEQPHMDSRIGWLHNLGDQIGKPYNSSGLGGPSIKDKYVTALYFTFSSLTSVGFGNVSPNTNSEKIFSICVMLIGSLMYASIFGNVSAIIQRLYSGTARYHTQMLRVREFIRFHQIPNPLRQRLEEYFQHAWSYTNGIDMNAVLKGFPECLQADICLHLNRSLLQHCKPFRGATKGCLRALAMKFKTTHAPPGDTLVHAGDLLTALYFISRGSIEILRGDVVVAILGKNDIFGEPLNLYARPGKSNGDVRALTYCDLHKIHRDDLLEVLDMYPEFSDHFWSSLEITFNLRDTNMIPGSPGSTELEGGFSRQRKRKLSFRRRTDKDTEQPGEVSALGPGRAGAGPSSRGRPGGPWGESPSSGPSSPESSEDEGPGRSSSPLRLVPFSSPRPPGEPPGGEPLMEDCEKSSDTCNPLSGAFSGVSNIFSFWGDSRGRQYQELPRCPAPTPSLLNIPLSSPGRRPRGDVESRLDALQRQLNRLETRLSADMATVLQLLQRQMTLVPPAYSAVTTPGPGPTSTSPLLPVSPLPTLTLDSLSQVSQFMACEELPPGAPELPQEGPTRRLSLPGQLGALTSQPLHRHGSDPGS
- Test Details: cell-based
- Conditions Used: (-LOG10(IC50), µM)
Counter-ions that a name gives are not always drawn.
Assignment: determine reported IC50 for the given compounds.
State the value, then name its unit.

Requested read-out: IC50. Entry: CCCCCCCCCCn1cc[n+](CCCCCCCCCC)c1C [1,3-Didecyl-2-methylimidazolium chloride] 0.51 µM

Using the record for C[C@@H](NCCCc1cccc(C(F)(F)F)c1)c1cccc2ccccc12 [Cinacalcet hydrochloride] , report its IC50. 12 µM

Which IC50 is listed for `Cc1ccc(-c2ccccc2)cc1` ? 49 µM

# get_value(readout='IC50', item= `CN1CCC(N(Cc2cccs2)c2ccccc2)CC1` ) 4.96 µM

Report IC50 for `CC(C)=CCCC(C)=CCCC(C)=CCO` please. 47.1 µM

Find the recorded IC50 belonging to `CC(=O)C1=C(C)[C@@H]2C[C@@]3(C1)[C@H](C)CC[C@H]3C2(C)C` and report it. 30.5 µM

Look up IC50: Clc1ccc(Cn2c(CN3CCCC3)nc3ccccc32)cc1 [Clemizole hydrochloride] 1.34 µM

// query IC50 value for entry CCC(COC(=O)c1cc(OC)c(OC)c(OC)c1)(c1ccccc1)N(C)C (stereo not drawn) [Trimebutine maleate] 16.9 µM

Entry under review: `COc1cccc(-c2ccc(/C=C\CN3CCCCCC3)cc2Cl)c1` . Reported IC50? 1.48 µM

Would you mind telling me what IC50 value was observed for COC(=O)C1=C(C)NC(C)=C(C(=O)O[C@@H]2CCCN(Cc3ccccc3)C2)[C@@H]1c1cccc([N+](=O)[O-])c1 (racemic) [rac Benidipine hydrochloride] ? 12.5 µM

Would you mind telling me what IC50 value was observed for `CCN(CC)CCNc1ccc(CO)c2sc3ccccc3c(=O)c12` ? 10.7 µM

GET /values?readout=IC50&item= O=C(N=NC(=O)OCc1ccccc1)OCc1ccccc1 [Dibenzyl diazene-1,2-dicarboxylate] 21.9 µM

// IC50 lookup, key: `CCOc1ccc2nc(N)sc2c1` 43.3 µM

Dear colleague, I am looking for the recorded IC50 of the following compound: CCCCCCCCCCCC(=O)NCCCN(C)C [N-[3-(Dimethylamino)propyl]dodecanamide] 14.3 µM

Please look up its IC50: `O=S(=O)(c1ccc(Cl)cc1)c1ccc(Cl)cc1` 49.7 µM

Would you mind telling me what IC50 value was observed for C=CCOC(Cn1ccnc1)c1ccc(Cl)cc1Cl (stereo not drawn) [Imazalil sulfate] ? 21.3 µM

I'd like to know its IC50. The compound in question is `ClC(Cl)=C(c1ccc(Cl)cc1)c1ccc(Cl)cc1` 27.5 µM

# input compound: CN1C(=O)N(c2ccccc2Br)Cc2cnc(Nc3ccc4c(c3)OCC(CO)O4)nc21 (stereo not drawn) ; wanted: its IC50 43.6 µM

Report IC50 for COC(=O)C1=C(C)NC(C)=C(C(=O)OC(C)(C)CN(C)CCC(c2ccccc2)c2ccccc2)C1c1cccc([N+](=O)[O-])c1 (stereo not drawn) [Lercanidipine hydrochloride] please. 3.25 µM

Looking for the measured IC50 of CC[N+](CC)(CC(=O)Nc1c(C)cccc1C)Cc1ccccc1 [Denatonium saccharide] , can you help? 27.1 µM

Any idea what its IC50 is? The compound is `CC(O)(c1ccc(Cl)cc1)c1ccc(Cl)cc1` 46.2 µM

Looking for the measured IC50 of NC(=O)C1(N2CCCCC2)CCN(CCCC(=O)c2ccc(F)cc2)CC1 [Pipamperone dihydrochloride] , can you help? 20.1 µM

Quick one: IC50 of `CCCCCOc1ccccc1/C(=C\SC)n1ccnc1` ? 20.5 µM

// IC50 lookup, key: `O=S(=O)(C(Cl)(Cl)Cl)C(Cl)(Cl)Cl` 18.8 µM

IC50 lookup needed for CC(CCc1ccc(O)cc1)NCCc1ccc(O)c(O)c1 (racemic) , thanks. 16.9 µM

What value of IC50 has been recorded for this entry: COC(=O)C1=C(C)NC(C)=C(C(=O)OCCCN2CCC(c3ccccc3)(c3ccccc3)CC2)C1c1cccc([N+](=O)[O-])c1 (racemic) [(+/-) -Niguldipine hydrochloride (1:x)] 1.25 µM

Please look up its IC50: `OCCN1CCN(CCCN2c3ccccc3Sc3ccc(C(F)(F)F)cc32)CC1` 2.79 µM

I would be grateful if you could share the reported IC50 for CCCN1C[C@H](CSC)C[C@@H]2c3cccc4[nH]cc(c34)C[C@H]21 [Pergolide methanesulfonate] . 7.56 µM

Look up IC50 for this compound: CCCCCCCCCCCC[N+](C)(C)C [Dodecyltrimethylammonium chloride] 18 µM

Any idea what IC50 was measured for `Cc1ccc(-n2nc(C(C)(C)C)cc2NC(=O)Nc2ccc(OCCN3CCOCC3)c3ccccc23)cc1` ? 20.1 µM

// IC50 lookup, key: `COC(=O)[C@H]1[C@H]2C[C@@H]3c4[nH]c5cc(OC)ccc5c4CCN3C[C@H]2C[C@@H](OC(=O)c2cc(OC)c(OC)c(OC)c2)[C@@H]1OC` 9.16 µM

Item O=c1[nH]c2ccccc2n1CCCN1CCN(C(c2ccccc2)c2ccccc2)CC1 [Oxatomide] has what recorded IC50? 0.442 µM

Sample `N=C(N/N=C/c1ccc(Cl)cc1)N/N=C/c1ccc(Cl)cc1` — what was its IC50? 1.69 µM
